tested on: rat super-ovulation; test: biological activity in rat super-ovulation; format: in vivo
// ED20-50 Super-ovul. lookup, one value per entry
endpoint label: ED20-50 Super-ovul. (ng/rat)

1) Pgl-His-Trp-Ser-Tyr-D-Trp-Ser(L-Ara)-Arg-Pro-NH-C2 H5 :: 48
2) Pgl-His-Trp-Ser-Tyr-D-Ser(β-L-Xyl)-Leu-Arg-Pro-NH-C2 H5 :: 6
3) Pgl-His-Trp-Ser-Tyr-D-Trp-Ser(D-Ara)-Arg-Pro-NH-C2 H5 :: 24
4) Pgl-His-Trp-Ser-Tyr-D-Trp-Ser(β-L-Xyl)-Arg-Pro-NH-C2 H5 :: 48
